Measured values drawn from BindingDB's records for doi:10.1016/j.ejmech.2014.06.016 for this set.

test: Inhibition of p-glycoprotein in human MDA435/LCC6MDR cells assessed as concentration required to reduce taxol IC50 by half after 5 days by MTS assay
pEC50: −log10 of the molar value.
measurement kind: pEC50

• CCN(CC)c1ccc(Cc2c(Cc3ccc(OC)c(OC)c3)nc(NC(=O)c3cc(OC)c(OC)c(OC)c3)n2C)cc1 = 6.67
• CCN(CC)c1ccc(Cc2c(Cc3ccc(OC)c(OC)c3)nc(N(C(=O)/C=C/c3cc(OC)c(OC)c(OC)c3)C(=O)/C=C/c3cc(OC)c(OC)c(OC)c3)n2C)cc1 = 6.68
